# System: Mycobacterium tuberculosis
# Procedure Details: Antimycobacterial activity against streptomycin-resistant Mycobacterium tuberculosis ATCC 35820 under normoxic condition after 7 days by MABA assay
# Type: functional
# Condition Description: ATCC 35820, 168 h
Items are presented alongside their recorded MIC90.
Response body: numeric value in µg/mL, unit text excluded.

Would you please look over these solved cases?
>>> value_observed("NNC(=O)c1ccncc1")
0.03
>>> value_observed("CC(C)C[C@@H]1NC(=O)[C@H]2CCCNN2C(=O)[C@H](C)N(C)C(=O)[C@H]2CCCNN2C(=O)[C@@H]2CCCNN2C(=O)[C@@H](C(C)C)NC1=O")
11.6

[Q] Consider the compound `CC[C@H](C)[C@H]1NC(=O)[C@H](CC(C)C)NC(=O)[C@H]2CCCNN2C(=O)[C@H](C)N(C)C(=O)[C@H]2CCCNN2C(=O)[C@@H]2CCCNN2C1=O` and give its measured MIC90.
[A] 4.7

* * *

# Tested on: Mycobacterium tuberculosis
# Procedure Details: Antimycobacterial activity against isoniazid-resistant Mycobacterium tuberculosis ATCC 35822 under normoxic condition after 7 days by MABA assay
# Format: functional
# Condition Description: ATCC 35822, 168 h
Items are presented alongside their recorded MIC90.
Response body: numeric value in µg/mL, unit text excluded.

Would you please look over these solved cases?
>>> value_observed("CO[C@H]1/C=C/O[C@@]2(C)Oc3c(C)c(O)c4c(O)c(c(/C=N/N5CCN(C)CC5)c(O)c4c3C2=O)NC(=O)/C(C)=C\\C=C\\[C@H](C)[C@H](O)[C@@H](C)[C@@H](O)[C@@H](C)[C@H](OC(C)=O)[C@@H]1C")
0.01
>>> value_observed("CN[C@@H]1[C@H](O[C@H]2[C@H](O[C@H]3[C@H](O)[C@@H](O)[C@H](N=C(N)N)[C@@H](O)[C@@H]3N=C(N)N)O[C@@H](C)[C@]2(O)C=O)O[C@@H](CO)[C@H](O)[C@H]1O")
0.1
>>> value_observed("CC[C@H](C)[C@H]1NC(=O)[C@H](CC(C)C)NC(=O)[C@H]2CCCNN2C(=O)[C@H](C)N(C)C(=O)[C@H]2CCCNN2C(=O)[C@@H]2CCCNN2C1=O")
4.7

Here's the next entry for you.
[Q] Consider the compound `CC(C)C[C@@H]1NC(=O)[C@H]2CCCNN2C(=O)[C@H](C)N(C)C(=O)[C@H]2CCCNN2C(=O)[C@@H]2CCCNN2C(=O)[C@@H](C(C)C)NC1=O` and give its measured MIC90.
[A] 12.1

* * *

Items are presented alongside their recorded MIC90.
# Tested on: Mycobacterium tuberculosis
# Procedure Details: Antimycobacterial activity against streptomycin-resistant Mycobacterium tuberculosis ATCC 35820 under normoxic condition after 7 days by MABA assay
# Type: functional
# Condition Description: ATCC 35820, 168 h

>>> value_observed("CN[C@@H]1[C@H](O[C@H]2[C@H](O[C@H]3[C@H](O)[C@@H](O)[C@H](N=C(N)N)[C@@H](O)[C@@H]3N=C(N)N)O[C@@H](C)[C@]2(O)C=O)O[C@@H](CO)[C@H](O)[C@H]1O [STREPTOMYCIN]")
"> 9.3 µg/mL"
>>> value_observed("CO[C@H]1/C=C/O[C@@]2(C)Oc3c(C)c(O)c4c(O)c(c(/C=N/N5CCN(C)CC5)c(O)c4c3C2=O)NC(=O)/C(C)=C\\C=C\\[C@H](C)[C@H](O)[C@@H](C)[C@@H](O)[C@@H](C)[C@H](OC(C)=O)[C@@H]1C [RIFAMPIN]")
"< 0.01 µg/mL"

Here's the next entry for you.
[Q] Consider the molecule Cc1ncc([N+](=O)[O-])n1CCO [METRONIDAZOLE] and give its measured MIC90.
[A] > 87.6 µg/mL
